# residual activity per record follows
target: SRSF protein kinase 3 (Homo sapiens); conditions: at 10 µM
Description: Millipore: Percentage of residual kinase activity of SRPK3 at 10uM relative to control. Control inhibitor: Phosphoric acid* at 0.3uM. Buffer: 8 mM MOPS pH 7.0, 0.2 mM EDTA

COMPOUND	RESULT_UNIT	residual activity
COc1cc2ncnc(Nc3ccc(OCc4ccccc4)cc3)c2cc1OC	%	89
COc1ccc2c(c[n+](C)c3c4cc5c(cc4ccc23)OCO5)c1OC	%	66
O=[N+]([O-])/C=C/c1ccc2c(c1)OCO2	%	93
O=C1NC(=O)c2c1c1c3ccccc3n3c1c1c2c2ccccc2n1C1CCC3O1	%	96
O=C1c2ccccc2-c2nc3nnnn3nc21	%	83
CN[C@@H]1C[C@H]2O[C@@](C)([C@@H]1OC)n1c3ccccc3c3c4c(c5c6ccccc6n2c5c31)C(=O)NC4	%	40
CCc1nc(-c2ccc(OC)cc2)[nH]c1-c1ccncc1	%	103
CCn1cnc2c(Nc3cccc(Cl)c3)nc(N[C@@H]3CCCC[C@@H]3N)nc21	%	71
C[S+]([O-])c1ccc(-c2nc(-c3ccc(F)cc3)c(-c3ccncc3)[nH]2)cc1 (centres undefined)	%	101

====

target: Mitogen-activated protein kinase 14 (Homo sapiens) (UniProt Q16539); details: at 10 µM
Sequence (Q16539 whole entry): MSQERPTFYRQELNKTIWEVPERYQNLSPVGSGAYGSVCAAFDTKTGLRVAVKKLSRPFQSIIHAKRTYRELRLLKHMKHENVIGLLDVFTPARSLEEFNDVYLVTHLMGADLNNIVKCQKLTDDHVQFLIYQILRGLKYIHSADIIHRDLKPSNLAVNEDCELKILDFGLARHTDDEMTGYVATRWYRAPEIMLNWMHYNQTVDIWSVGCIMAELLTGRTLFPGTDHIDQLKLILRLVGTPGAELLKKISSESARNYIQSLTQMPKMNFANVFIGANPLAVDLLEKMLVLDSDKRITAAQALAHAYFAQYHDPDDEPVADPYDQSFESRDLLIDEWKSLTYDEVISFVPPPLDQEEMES
# strict inequality: residual activity < 80% yields rule met, everything else yields rule not met

STRUCTURE_AS_SMILES	LABEL
N/C(=N\[N+](=O)[O-])N/N=C\c1ccc(-c2cccc([N+](=O)[O-])c2)o1	rule not met
O=[N+]([O-])/C=C/c1ccc2c(c1)OCO2	rule not met
O=C1Nc2ccc3ncsc3c2/C1=C/c1c[nH]cn1	rule met
COC(=O)[C@@]1(O)C[C@H]2O[C@]1(C)n1c3ccccc3c3c4c(c5c6ccccc6n2c5c31)C(=O)NC4	rule met
CCn1cnc2c(Nc3cccc(Cl)c3)nc(N[C@@H]3CCCC[C@@H]3N)nc21	rule met
COc1cc2ncnc(Nc3ccc(OCc4ccccc4)cc3)c2cc1OC	rule not met
COc1cc2nccc(Oc3ccc(NC(=O)Nc4cc(C)on4)c(Cl)c3)c2cc1OC	rule met
O=c1[nH]c2ccccc2n1C1CCN(Cc2ccc(-c3nc4cc5[nH]cnc5cc4nc3-c3ccccc3)cc2)CC1	rule not met

====

molecular target: Mitogen-activated protein kinase 14 (Homo sapiens); conditions: at 1 µM

STRUCTURE_AS_SMILES	TARGET_OR_SYSTEM	RESULT_UNIT	residual activity
CC(C)[C@H](CO)Nc1nc(Nc2cccc(Cl)c2)c2ncn(C(C)C)c2n1	Mitogen-activated protein kinase 14 (Homo sapiens)	%	88
O=[N+]([O-])/C=C/c1ccc2c(c1)OCO2	Mitogen-activated protein kinase 14 (Homo sapiens)	%	93
O=C1c2ccccc2-c2nc3nnnn3nc21	Mitogen-activated protein kinase 14 (Homo sapiens)	%	111
O=c1[nH]c2ccccc2n1C1CCN(Cc2ccc(-c3nc4cc5[nH]cnc5cc4nc3-c3ccccc3)cc2)CC1	Mitogen-activated protein kinase 14 (Homo sapiens)	%	75
O=C1Nc2ccc3ncsc3c2/C1=C/c1c[nH]cn1	Mitogen-activated protein kinase 14 (Homo sapiens)	%	80
COc1cc2nccc(Oc3ccc(NC(=O)Nc4cc(C)on4)c(Cl)c3)c2cc1OC	Mitogen-activated protein kinase 14 (Homo sapiens)	%	23

====

molecular target: Fibroblast growth factor receptor 3 (Homo sapiens); conditions: at 10 µM
MEASURE: residual activity (%)

MOLECULE	MEASURE	RESULT_UNIT	TEST_RESULT
COc1ccc2c(c1)/C(=C/c1cnc[nH]1)C(=O)N2	residual activity	%	14
CC(C)(C)c1cc(C=C(C#N)C#N)cc(Br)c1O	residual activity	%	99
CCc1nc(-c2ccc(OC)cc2)[nH]c1-c1ccncc1	residual activity	%	124
COc1ccc2c(c[n+](C)c3c4cc5c(cc4ccc23)OCO5)c1OC	residual activity	%	57
O=C1Nc2ccc3ncsc3c2/C1=C/c1c[nH]cn1	residual activity	%	9
COc1cc2ncnc(Nc3ccc(OCc4ccccc4)cc3)c2cc1OC	residual activity	%	100
O=C1c2ccccc2-c2nc3nnnn3nc21	residual activity	%	132
C[S+]([O-])c1ccc(-c2nc(-c3ccc(F)cc3)c(-c3ccncc3)[nH]2)cc1 (stereo unspecified)	residual activity	%	99
CCn1cnc2c(Nc3cccc(Cl)c3)nc(N[C@@H]3CCCC[C@@H]3N)nc21	residual activity	%	53
CC(C)[C@H](CO)Nc1nc(Nc2cccc(Cl)c2)c2ncn(C(C)C)c2n1	residual activity	%	56
O=[N+]([O-])/C=C/c1ccc2c(c1)OCO2	residual activity	%	107

====

target: Fibroblast growth factor receptor 2 (Homo sapiens) (UniProt P21802); settings: at 10 µM
Sequence (P21802 22-821 limits assumed): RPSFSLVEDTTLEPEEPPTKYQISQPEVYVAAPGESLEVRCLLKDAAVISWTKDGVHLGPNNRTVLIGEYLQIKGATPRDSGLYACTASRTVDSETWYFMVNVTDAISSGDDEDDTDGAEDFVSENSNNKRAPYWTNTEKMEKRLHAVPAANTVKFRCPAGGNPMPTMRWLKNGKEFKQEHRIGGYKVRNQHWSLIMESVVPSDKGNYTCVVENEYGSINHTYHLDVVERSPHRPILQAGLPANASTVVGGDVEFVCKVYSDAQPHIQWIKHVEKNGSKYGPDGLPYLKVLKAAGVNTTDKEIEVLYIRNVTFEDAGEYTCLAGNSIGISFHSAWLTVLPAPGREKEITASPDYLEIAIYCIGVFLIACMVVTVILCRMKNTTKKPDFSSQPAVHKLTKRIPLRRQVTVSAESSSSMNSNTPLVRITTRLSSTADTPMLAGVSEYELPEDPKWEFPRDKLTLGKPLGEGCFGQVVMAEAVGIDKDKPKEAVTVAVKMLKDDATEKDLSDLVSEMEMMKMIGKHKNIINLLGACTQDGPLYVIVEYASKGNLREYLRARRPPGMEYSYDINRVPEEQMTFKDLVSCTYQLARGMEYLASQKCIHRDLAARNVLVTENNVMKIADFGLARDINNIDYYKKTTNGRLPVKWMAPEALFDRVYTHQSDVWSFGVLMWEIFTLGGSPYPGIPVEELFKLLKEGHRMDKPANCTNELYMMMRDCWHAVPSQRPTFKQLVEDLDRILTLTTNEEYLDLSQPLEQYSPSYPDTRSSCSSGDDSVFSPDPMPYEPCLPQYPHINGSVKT
Examples of compounds with documented residual activity follow.
MEASURE: residual activity (%)

COMPOUND	MEASURE	TEST_RESULT
C[S+]([O-])c1ccc(-c2nc(-c3ccc(F)cc3)c(-c3ccncc3)[nH]2)cc1 (stereo unspecified)	residual activity	81
COc1cc2ncnc(Nc3ccc(OCc4ccccc4)cc3)c2cc1OC	residual activity	109
COc1cc(OC)c(/C=C2\C(=O)Nc3ccccc32)c(OC)c1	residual activity	90
O=C1Nc2ccc3ncsc3c2/C1=C/c1c[nH]cn1	residual activity	3
O=c1[nH]c2ccccc2n1C1CCN(Cc2ccc(-c3nc4cc5[nH]cnc5cc4nc3-c3ccccc3)cc2)CC1	residual activity	78
COc1ccc2c(c1)/C(=C/c1cnc[nH]1)C(=O)N2	residual activity	12

====

molecular target: Ephrin type-A receptor 8 (Homo sapiens) (UniProt P29322); settings: at 10 µM
Sequence (P29322 whole entry): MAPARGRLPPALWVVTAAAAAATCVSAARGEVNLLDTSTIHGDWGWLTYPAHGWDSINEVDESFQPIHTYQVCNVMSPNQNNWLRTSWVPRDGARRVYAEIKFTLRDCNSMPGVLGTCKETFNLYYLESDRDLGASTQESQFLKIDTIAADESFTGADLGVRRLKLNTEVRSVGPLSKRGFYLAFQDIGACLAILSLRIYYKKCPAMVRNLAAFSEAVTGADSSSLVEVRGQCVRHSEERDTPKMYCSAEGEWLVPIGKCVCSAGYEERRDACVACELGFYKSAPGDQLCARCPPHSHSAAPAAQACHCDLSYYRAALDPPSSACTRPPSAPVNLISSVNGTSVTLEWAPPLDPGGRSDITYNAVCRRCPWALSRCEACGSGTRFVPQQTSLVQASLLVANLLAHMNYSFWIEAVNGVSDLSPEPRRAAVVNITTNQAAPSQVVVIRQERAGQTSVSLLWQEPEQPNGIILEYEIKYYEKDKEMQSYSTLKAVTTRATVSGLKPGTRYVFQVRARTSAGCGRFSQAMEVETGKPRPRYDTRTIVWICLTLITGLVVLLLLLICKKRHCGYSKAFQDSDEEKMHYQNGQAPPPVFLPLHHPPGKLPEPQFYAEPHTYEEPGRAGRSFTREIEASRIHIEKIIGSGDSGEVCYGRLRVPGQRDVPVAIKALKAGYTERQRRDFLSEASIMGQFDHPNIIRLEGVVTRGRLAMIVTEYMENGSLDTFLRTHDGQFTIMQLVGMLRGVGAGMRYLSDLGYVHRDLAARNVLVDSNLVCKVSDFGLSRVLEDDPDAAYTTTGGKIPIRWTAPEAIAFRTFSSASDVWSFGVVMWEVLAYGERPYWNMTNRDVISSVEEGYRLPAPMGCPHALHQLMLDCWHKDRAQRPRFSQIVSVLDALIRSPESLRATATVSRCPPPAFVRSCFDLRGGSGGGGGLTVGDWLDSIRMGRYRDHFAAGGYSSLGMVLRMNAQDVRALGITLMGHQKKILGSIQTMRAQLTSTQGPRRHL

STRUCTURE_AS_SMILES	residual activity / %
O=C1Nc2ccc3ncsc3c2/C1=C/c1c[nH]cn1	72
O=C1NC(=O)c2c1c1c3ccccc3n3c1c1c2c2ccccc2n1C1CCC3O1	94
CC(C)(C)c1cc(C=C(C#N)C#N)cc(Br)c1O	99
COc1cc(OC)c(/C=C2\C(=O)Nc3ccccc32)c(OC)c1	84
CC(C)[C@H](CO)Nc1nc(Nc2cccc(Cl)c2)c2ncn(C(C)C)c2n1	46
O=[N+]([O-])/C=C/c1ccc2c(c1)OCO2	103

====

target: Serine/threonine-protein kinase Chk2 (Homo sapiens); conditions: at 10 µM
Readings of residual activity for the listed compounds
MEASURE: residual activity (%)

STRUCTURE_AS_SMILES	RESULT_UNIT	TEST_RESULT
N/C(=N\[N+](=O)[O-])N/N=C\c1ccc(-c2cccc([N+](=O)[O-])c2)o1	%	75
COc1ccc2c(c[n+](C)c3c4cc5c(cc4ccc23)OCO5)c1OC	%	90
O=C1NC(=O)c2c1c1c3ccccc3n3c1c1c2c2ccccc2n1C1CCC3O1	%	24
CC(C)[C@H](CO)Nc1nc(Nc2cccc(Cl)c2)c2ncn(C(C)C)c2n1	%	38
COc1ccc2c(c1)/C(=C/c1cnc[nH]1)C(=O)N2	%	25
CCn1cnc2c(Nc3cccc(Cl)c3)nc(N[C@@H]3CCCC[C@@H]3N)nc21	%	12
O=C1Nc2ccc3ncsc3c2/C1=C/c1c[nH]cn1	%	15

====

target: Protein kinase C delta type (Homo sapiens); conditions: at 10 µM

STRUCTURE_AS_SMILES	residual activity / %
CCn1cnc2c(Nc3cccc(Cl)c3)nc(N[C@@H]3CCCC[C@@H]3N)nc21	59
COc1cc2ncnc(Nc3ccc(OCc4ccccc4)cc3)c2cc1OC	106
CC(C)(C)c1cc(C=C(C#N)C#N)cc(Br)c1O	97
CCc1nc(-c2ccc(OC)cc2)[nH]c1-c1ccncc1	105
O=c1[nH]c2ccccc2n1C1CCN(Cc2ccc(-c3nc4cc5[nH]cnc5cc4nc3-c3ccccc3)cc2)CC1	111
O=C1Nc2ccc3ncsc3c2/C1=C/c1c[nH]cn1	5
COc1ccc2c(c1)/C(=C/c1cnc[nH]1)C(=O)N2	61

====

target: Calcium/calmodulin-dependent protein kinase type 1 (Homo sapiens); settings: at 10 µM
Use 60% as the dividing line for residual activity, with the line itself on the label 1 side and lower values as label 0.

STRUCTURE_AS_SMILES	TARGET_OR_SYSTEM	LABEL
COc1cc2ncnc(Nc3ccc(OCc4ccccc4)cc3)c2cc1OC	Calcium/calmodulin-dependent protein kinase type 1 (Homo sapiens)	label 0
CCn1cnc2c(Nc3cccc(Cl)c3)nc(N[C@@H]3CCCC[C@@H]3N)nc21	Calcium/calmodulin-dependent protein kinase type 1 (Homo sapiens)	label 0
COC(=O)[C@@]1(O)C[C@H]2O[C@]1(C)n1c3ccccc3c3c4c(c5c6ccccc6n2c5c31)C(=O)NC4	Calcium/calmodulin-dependent protein kinase type 1 (Homo sapiens)	label 0
O=C1NC(=O)c2c1c1c3ccccc3n3c1c1c2c2ccccc2n1C1CCC3O1	Calcium/calmodulin-dependent protein kinase type 1 (Homo sapiens)	label 0
CC(C)[C@H](CO)Nc1nc(Nc2cccc(Cl)c2)c2ncn(C(C)C)c2n1	Calcium/calmodulin-dependent protein kinase type 1 (Homo sapiens)	label 1
O=C1c2ccccc2-c2nc3nnnn3nc21	Calcium/calmodulin-dependent protein kinase type 1 (Homo sapiens)	label 1
O=C1Nc2ccc3ncsc3c2/C1=C/c1c[nH]cn1	Calcium/calmodulin-dependent protein kinase type 1 (Homo sapiens)	label 0
COc1ccc2c(c1)/C(=C/c1cnc[nH]1)C(=O)N2	Calcium/calmodulin-dependent protein kinase type 1 (Homo sapiens)	label 1
